biological target: NMDA receptor; test: [3H]-(+)-MK-801 binding to rat cortical membranes; conditions: read-out: [3H] MK-801 IC50; Table 7; footnote calls the values Ki
Binning rule for recorded IC50: lower level: < 10 µM; middle level: ≥ 10 µM and < 40 µM; upper level: ≥ 40 µM

### Prompt For the record CC[C@H]1CCC[C@@](C)(N)C1 (relative stereo) [Mrz 2/630] , report the class its IC50 corresponds to.
### Response upper level

### Prompt Dear colleague, I would appreciate it if you could identify the bin for CC1(N)CCCCC1 [Mrz 2/641] and reply at your convenience.
### Response upper level

### Prompt Dear colleague, I would appreciate it if you could identify the bin for CC[C@@H]1CC(C)(C)C[C@@](C)(N)C1 (relative stereo) [Mrz 2/633] and reply at your convenience.
### Response lower level

### Prompt Textbook exercise: identify the category of the compound given here, CC1(C)CCCC(C)(N)C1 (centres unmarked) [Mrz 2/621] , according to its measured value.
### Response middle level

### Prompt Form: Item = C[C@@H]1CCC[C@@](C)(N)C1 (relative stereo) [Mrz 2/625] ; Class = ?
### Response upper level

All values here come from patent US6034134A.
